Molecular target: human TLR9 (Homo sapiens, UniProt Q9NR96)
Sequence (Q9NR96 26-1032): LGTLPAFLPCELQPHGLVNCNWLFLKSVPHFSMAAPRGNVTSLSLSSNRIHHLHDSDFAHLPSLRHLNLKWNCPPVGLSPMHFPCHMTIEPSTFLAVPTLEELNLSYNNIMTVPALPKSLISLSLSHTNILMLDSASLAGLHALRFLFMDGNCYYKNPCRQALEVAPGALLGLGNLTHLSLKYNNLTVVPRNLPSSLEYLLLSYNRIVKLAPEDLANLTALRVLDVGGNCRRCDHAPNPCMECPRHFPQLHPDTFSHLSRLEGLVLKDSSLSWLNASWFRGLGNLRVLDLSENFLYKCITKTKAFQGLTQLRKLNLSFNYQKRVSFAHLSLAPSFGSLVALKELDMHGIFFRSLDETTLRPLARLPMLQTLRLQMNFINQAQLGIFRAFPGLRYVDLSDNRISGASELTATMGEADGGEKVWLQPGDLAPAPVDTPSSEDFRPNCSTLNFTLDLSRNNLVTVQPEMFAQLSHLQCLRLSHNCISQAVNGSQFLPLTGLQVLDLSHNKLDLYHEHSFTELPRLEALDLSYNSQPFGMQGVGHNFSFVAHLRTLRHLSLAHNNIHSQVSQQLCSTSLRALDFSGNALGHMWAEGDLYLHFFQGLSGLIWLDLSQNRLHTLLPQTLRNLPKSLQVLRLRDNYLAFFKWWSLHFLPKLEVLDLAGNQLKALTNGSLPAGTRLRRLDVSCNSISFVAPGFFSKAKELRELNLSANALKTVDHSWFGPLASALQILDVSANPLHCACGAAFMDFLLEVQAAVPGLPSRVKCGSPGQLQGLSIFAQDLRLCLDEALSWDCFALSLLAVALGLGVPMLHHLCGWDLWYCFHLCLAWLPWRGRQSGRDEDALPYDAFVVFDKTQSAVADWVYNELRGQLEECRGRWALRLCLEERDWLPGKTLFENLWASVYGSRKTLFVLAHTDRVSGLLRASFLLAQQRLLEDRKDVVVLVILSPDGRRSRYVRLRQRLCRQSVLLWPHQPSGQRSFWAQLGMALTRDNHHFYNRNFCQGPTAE
Experiment: TLR9 inhibition reporter assay (HEK-Blue SEAP)
Conditions: HEK-Blue cells overexpressing human TLR9, ODN2006 5 nM, 22 hour incubation
Source text: TLR7/8/9 Inhibition Reporter Assays HEK-Blue™-cells (Invivogen) overexpressing human TLR7, TLR8 or TLR9 receptors were used for screening inhibitors of these receptors using an inducible SEAP (secreted embryonic alkaline phosphatase) reporter gene under the control of the IFN-β minimal promoter fused to five NF-κB and AP-1-binding sites. […]
endpoint_label: IC50 (µM)

Here is how some molecules turned out for IC50.
Cc1cc(-c2ccc3c(c2)[nH]c(=O)n3C2CCN(C(=O)CN(C)C)CC2)cn2ncnc12 [Example 102]	3.21
CCC(CC)CN[C@H]1CC[C@@H](n2c(=O)[nH]c3cc(-c4cn5ncnc5c(C)c4C)c(C(C)C)cc32)CC1 [Example 198]	2.13
Cc1cc2c(cc1-c1cc(C)c3ncnn3c1)[nH]c(=O)n2[C@@H]1CCCN(C)C1 [Example 15]	5.94
COc1cc(-c2cc3[nH]c(=O)n(C4CCC(N5CCSCC5)CC4)c3cc2C(C)C)cn2ncnc12 (stereo not shown) [Example 250]	7.25

P = Cc1cc2c(cc1-c1cc(C)c3ncnn3c1)[nH]c(=O)n2[C@@H]1CCCN(CC(C)C)C1 [Example 40]
Q = COc1cc(-c2cc3[nH]c(=O)n([C@H]4CC[C@@H](NC(C)C)CC4)c3cc2C)cn2ncnc12 [Example 50]
R = CCCN1CCC[C@@H](n2c(=O)[nH]c3cc(-c4cc(OC)c5ncnn5c4)c(C)cc32)C1 [Example 54]
Parameters: sort_field (IC50), sort_dir (desc). # format: label list in the order the request specifies
Q, P, R

Every entry's value here was drawn from patent US12187723B2.
